This section presents compounds with their documented GI50 values.
- System: SNB-19
- assayName: NCI 60-cell line growth inhibition assay
- Format: cell-based
- reportedConditions: Homo sapiens; CNS, SNB-19
Supply the numeric figure in nM, leaving out any unit text.

compound | valueObserved
CC[C@H](CO)Nc1nc(NCc2ccc(-c3ccccc3)cc2)c2ncn(C(C)C)c2n1 [Compound 73] | 430
CC[C@H](CO)Nc1nc(NCc2ccc(-c3cccc(C(F)(F)F)c3)cc2)c2ncn(C(C)C)c2n1 [Compound 38] | 500
C=Cc1ccc(-c2ccc(CNc3nc(N[C@H](CC)CO)nc4c3ncn4C(C)C)cc2)cc1 [Compound 33] | 38000

# next compound below
So what GI50 did CC[C@H](CO)Nc1nc(NCc2ccc(-c3ccccn3)cc2)c2ncn(C(C)C)c2n1 [Compound 17] get with SNB-19?
140
